Source listed as ChEMBL document CHEMBL1201862.

System: HL-60
Test: NCI tumour cell line growth inhibition, 48 h
Calls of active or inactive are those of the source. No stated cut-off is given here; in the data, active = GI50 up to about 1.1 µM and inactive = higher.
measured-metric: GI50

Query c1ccc(-c2sc(-c3cccs3)cc2Cc2cccs2)cc1 yields GI50 of > 10 µM (inactive)

Query CCCCCCCCCC(=O)Oc1cccc2onc(C)c12 yields GI50 of 19.4 µM (inactive)

Query CCCCC[C@H](O)[C@H](C)C=C1SCCCS1 yields GI50 of > 100 µM (inactive)

Query COc1ccc(C2SCC(=O)N2c2ccc(-n3c(-c4ccccc4)nc4ccccc4c3=O)cc2)cc1 (stereo not given) yields GI50 of > 100 µM (inactive)

Query CCCCCCCc1ccc(-c2nnc(/N=N/c3ccc(OCCCCC)cc3)s2)s1 yields GI50 of > 100 µM (inactive)

Query CCOC(=O)CC1Nc2ccccc2C12CCc1c([nH]c3ccccc13)C2C(=O)OCC (stereo not given) yields GI50 of 14.7 µM (inactive)

Query O=C(CC1(O)C(=O)Nc2ccccc21)c1ccccc1O (stereo not given) yields GI50 of > 100 µM (inactive)

Query COc1ccc(-c2nnc3n(Cc4ccccc4)c4ccccc4n3c2=O)cc1 yields GI50 of > 100 µM (inactive)

Query COc1ccc2[nH]c3c(C)c4ccnc(NCCCN(C)CCCNC(=O)NCCCN(C)CCCNc5nccc6c(C)c7[nH]c8ccc(OC)cc8c7c(C)c56)c4c(C)c3c2c1 yields GI50 of 0.147 µM (active)

Query CC(NC(=O)c1ccc(Cl)c(Cl)c1)c1ccc(-c2ccccc2)cc1 (stereo not given) yields GI50 of 4.58 µM (inactive)
